Values were extracted from patent US20070099958A1.

# tested.system: Human DPP-I (Homo sapiens, UniProt P53634)
# Sequence (P53634 231-394 limits assumed): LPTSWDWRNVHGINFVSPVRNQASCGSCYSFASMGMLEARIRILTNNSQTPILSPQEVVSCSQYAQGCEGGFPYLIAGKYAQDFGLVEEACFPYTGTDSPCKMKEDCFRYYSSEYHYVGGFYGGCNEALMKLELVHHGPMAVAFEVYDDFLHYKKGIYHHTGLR
# Sequence (P53634 395-463 limits assumed): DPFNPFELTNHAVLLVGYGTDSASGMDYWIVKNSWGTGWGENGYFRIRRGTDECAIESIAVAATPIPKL
# Sequence (P53634 25-143 limits assumed): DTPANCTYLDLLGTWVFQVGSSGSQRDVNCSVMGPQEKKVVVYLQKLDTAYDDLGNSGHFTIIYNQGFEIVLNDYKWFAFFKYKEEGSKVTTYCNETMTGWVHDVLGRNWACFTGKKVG
measured.endpoint: pIC50
In simple prose, pIC50 is minus the logarithm base ten of a concentration in moles per litre.

For the compound shown here, CC[C@H](N)C(=O)N[C@H](C#N)Cc1ccc(-c2ccccc2)cc1 [Example 5] , give the reported pIC50. 7.89

---

# tested.system: CYP3A4 (Homo sapiens)
# Construct: purchased PanVera
# Sequence (P08684 2-503 limits assumed): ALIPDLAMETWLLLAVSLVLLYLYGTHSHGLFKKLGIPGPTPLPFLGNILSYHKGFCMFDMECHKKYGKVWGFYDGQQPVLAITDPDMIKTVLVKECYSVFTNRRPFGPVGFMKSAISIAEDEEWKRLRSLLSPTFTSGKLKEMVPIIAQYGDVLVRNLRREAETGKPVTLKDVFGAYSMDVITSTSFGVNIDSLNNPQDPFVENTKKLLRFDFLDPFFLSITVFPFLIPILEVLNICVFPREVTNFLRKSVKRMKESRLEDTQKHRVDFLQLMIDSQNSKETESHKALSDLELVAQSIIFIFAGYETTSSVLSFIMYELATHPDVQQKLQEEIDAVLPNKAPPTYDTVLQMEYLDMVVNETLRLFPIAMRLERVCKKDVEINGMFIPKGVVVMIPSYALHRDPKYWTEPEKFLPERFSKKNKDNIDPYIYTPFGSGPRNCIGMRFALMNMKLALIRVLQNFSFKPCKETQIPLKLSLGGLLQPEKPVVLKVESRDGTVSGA
# assay.summary: CYP3A4 assay (Vivid CYP3A4 Red Screening Kit)
# Type: in vitro ADME
# experimental.parameters: read-out: Metabolism: CYP enzymes (20 μM cutoff or IC50) CYP3A4
measured.endpoint: pIC50
In simple prose, pIC50 is minus the logarithm base ten of a concentration in moles per litre.

For the compound shown here, CC[C@H](N)C(=O)N[C@H](C#N)Cc1ccc(-c2ccccc2)cc1 [Example 5] , give the reported pIC50. 5.44
